Where do the numbers come from? From PubChem BioAssay (NCATS).

- MEASUREMENT_DESCRIPTION: qHTS Assay for Lipid Storage Modulators (AID 1519)
- STATED_CONDITIONS: Drosophila S3 cells, BODIPY lipid droplet/cell ratio, laser cytometry; measured here: lipid channel max response; cells loaded with oleic acid
Records with an inconclusive call do not appear.
List of max response values.
Only the number, expressed in %, is required.

# COMPOUND, UNIT_TEXT, max response
records = [
    ("CNCC[C@H](Oc1ccccc1OC)c1ccccc1", "%", -15.9),
    ("CC(C)SC(=N)N", "%", -3.81),
    ("C[C@@H]([C@H](O)c1ccc(O)cc1)N1CCC(Cc2ccccc2)CC1", "%", -6.29),
    ("CS(=O)(=O)Nc1c(O)ccc2c1CCC[C@H]2C1=NCCN1", "%", -17.3),
    ("c1ccc2oc(C3=NCCN3)cc2c1", "%", -18.7),
    ("C[C@@H]1Nc2ccc(Cl)cc2S(=O)(=O)N1", "%", 3.08),
]

Entry Cc1ncc2c(c1O)COP(=O)(O)OC2 ; max response = -4.32

Entry NC(N)=NCCC[C@@H](N)C(=O)O ; max response = -21.4

Entry N#C/C(=C\c1ccc(O)c(O)c1)C(N)=O ; max response = 9.4

Entry Cc1cc(C(=O)O)ccc1[C@H](N)C(=O)O ; max response = 9.03

----------
- MEASUREMENT_DESCRIPTION: P-glycoprotein substrates identified in KB-3-1 adenocarcinoma cell line, qHTS therapeutic library screen (AID 1346986); further: nearly all actives have a fitted effect of over 60% in size
- STATED_CONDITIONS: KB-3-1 parental cells viability, CellTiter-Glo, 72 h; series mostly up to 44.5 µM
Records with an inconclusive call do not appear. Activity calls are given as the source filed them. Calls follow the shape of the dose curve; as a rule, active = well fitted inhibition curve with a large enough effect; inconclusive = small, poorly fitted or top-dose-only effect; inactive = no such curve, though single readings can be large or run the other way.
Entry note: the call must match one of 1 = active, -1 = inactive

Solved entries (count: 10):
# COMPOUND, ANSWER_LABEL
records = [
    ("NC1CCCN(c2c(/C=C3\\SC(=O)NC3=O)cccc2-c2ccccc2)C1 (centres undefined)", -1),
    ("O=C(NCCO)c1cc(C(=O)NCCO)cc(C(=O)NCCO)c1", -1),
    ("c1csc(CNc2ncnc3ccc(-c4ccc5c(c4)OCO5)cc23)c1", 1),
    ("CC(C)OC(=O)OCOP(=O)(COC(C)Cn1cnc2c(N)ncnc21)OCOC(=O)OC(C)C (centres undefined)", -1),
    ("Cc1ccc(OCCSc2ncccn2)c(Br)c1", -1),
    ("O=C1CCCC2=C1C(c1ccncc1Br)N=C(Nc1nc3ccccc3o1)N2 (centres undefined)", -1),
    ("CN(C)CCCNc1c2ccccc2nc2c1[nH]c1ccccc12", 1),
    ("CCc1c(C(=O)NNC(=O)[C@@H](O)c2cc(F)cc(F)c2)ccc(O)c1C", -1),
    ("CN1C/C=C/CCOc2cccc(c2)-c2ccnc(n2)Nc2cccc(c2)C1", 1),
    ("CCOc1ccc(/C=C2\\SC(=O)N(CCN)C2=O)cc1", -1),
]

What did this assay record as the result for O=C1NCCSc2c1sc1ccc(O)cc21 ? 1

What did this assay record as the result for CC/C=C\CC1C(=O)CCC1CC(=O)OC (centres undefined) ? -1

What did this assay record as the result for CC(C)=CCC/C(C)=C/CC/C(C)=C/CSc1ccccc1C(=O)O ? -1

What did this assay record as the result for CN(C)Cc1cccc(N=C(c2ccccc2)c2c(O)[nH]c3cc(C(N)=O)ccc23)c1 ? -1

----------
- System: Zika virus NS2B-NS3 protease (linked construct)
- MEASUREMENT_DESCRIPTION: Primary screen NINDS Rhodamine qHTS for Zika virus inhibitors (AID 1347160); further: nearly all actives have a fitted effect of over 55% in size
- STATED_CONDITIONS: purified NS2B-NS3 protease, Rhodamine110 substrate fluorescence; series mostly up to 57.1 µM
- Excerpt: Avindra Nath, Ph.D., National Institute of Neurological Disorders and Stroke (NINDS), Bethesda, MD Radhakrishnan Padmanabhan, Ph.D., Georgetown University (GU), Washington D.C. Zika Virus causes congenital defects, including microcephaly and is associated with Guillain-Barre syndrome, eningoencephalitis and myelitis in infected adult. […]
Inconclusive results are not listed. The source made the active and inactive calls. The call rests on the fitted dose curve; in most records, active means well fitted inhibition curve with a large enough effect; inconclusive means small, poorly fitted or top-dose-only effect; inactive means no such curve, though single readings can be large or run the other way.
Entry note: the call must match one of active, inactive

Solved entries (count: 6):
# MOLECULE, ANSWER_LABEL
data = [
    ("CC(C)=CCC[C@@H](C)[C@@H]1CC[C@@]2(C)C[C@H]3C(C)=CC(=O)[C@@H]3/C(C=O)=C\\C[C@H]12", "active"),
    ("Fc1ccc(C2CCNC[C@H]2COc2ccc3c(c2)OCO3)cc1 (some centres not stated)", "inactive"),
    ("CC1(CO)CCCC2(C)C1C(OC(=O)c1ccccc1)C=C1C(=O)OCC12O (configuration not stated)", "inactive"),
    ("N#Cc1ccc2c(c1)CCN(CCC1CCC(NC(=O)c3ccnc4ccccc34)CC1)C2 (configuration not stated)", "inactive"),
    ("CC1CCC2(NC1)OC1CC3C4CC=C5CC(O[C@@H]6O[C@H](CO)[C@@H](O[C@@H]7O[C@@H](C)[C@H](O)[C@@H](O)[C@H]7O)[C@H](O)[C@H]6O[C@@H]6O[C@@H](C)[C@H](O)[C@@H](O)[C@H]6O)CCC5(C)C4CCC3(C)C1C2C (some centres not stated)", "inactive"),
    ("OCc1ccc2ocnc2c1", "inactive"),
]

Below: the item to evaluate.
What did this assay record as the result for CNC(=O)c1cccc2cc(Oc3ccnc4cc(OCC5(N)CC5)c(OC)cc34)ccc12 ? inactive

----------
- SYSTEM_UNDER_TEST: Atrial natriuretic peptide receptor 1 (Homo sapiens) (UniProt P16066)
- Sequence (P16066 whole entry, looked up): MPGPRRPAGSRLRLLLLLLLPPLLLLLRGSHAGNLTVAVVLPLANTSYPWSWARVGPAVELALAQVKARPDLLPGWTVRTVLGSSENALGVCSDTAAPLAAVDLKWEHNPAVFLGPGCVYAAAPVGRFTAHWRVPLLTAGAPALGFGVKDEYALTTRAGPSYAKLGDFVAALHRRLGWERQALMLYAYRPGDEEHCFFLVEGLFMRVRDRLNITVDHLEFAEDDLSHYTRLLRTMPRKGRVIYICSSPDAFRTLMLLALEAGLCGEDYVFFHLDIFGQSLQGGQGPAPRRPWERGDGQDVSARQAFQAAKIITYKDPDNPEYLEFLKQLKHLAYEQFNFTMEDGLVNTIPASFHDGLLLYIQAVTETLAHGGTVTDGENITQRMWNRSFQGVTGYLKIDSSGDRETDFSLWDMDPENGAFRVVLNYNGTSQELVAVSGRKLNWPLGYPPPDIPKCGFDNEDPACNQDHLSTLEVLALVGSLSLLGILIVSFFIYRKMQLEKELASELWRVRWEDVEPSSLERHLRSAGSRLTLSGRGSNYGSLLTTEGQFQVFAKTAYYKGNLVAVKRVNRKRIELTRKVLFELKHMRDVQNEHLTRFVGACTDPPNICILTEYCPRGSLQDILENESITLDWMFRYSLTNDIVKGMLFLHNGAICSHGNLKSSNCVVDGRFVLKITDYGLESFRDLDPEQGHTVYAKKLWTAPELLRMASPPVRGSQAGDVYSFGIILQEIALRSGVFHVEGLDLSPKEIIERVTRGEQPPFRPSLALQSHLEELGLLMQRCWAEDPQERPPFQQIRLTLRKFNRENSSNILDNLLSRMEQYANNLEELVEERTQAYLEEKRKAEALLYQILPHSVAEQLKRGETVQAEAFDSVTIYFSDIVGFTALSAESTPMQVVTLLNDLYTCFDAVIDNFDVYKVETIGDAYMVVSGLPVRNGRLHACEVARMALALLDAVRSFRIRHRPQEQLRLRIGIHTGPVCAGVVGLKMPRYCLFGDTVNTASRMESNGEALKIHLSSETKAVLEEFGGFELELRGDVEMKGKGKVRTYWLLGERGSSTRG
- MEASUREMENT_DESCRIPTION: Natriuretic polypeptide receptor (hNpr1) antagonism - Pilot CMLD screen (AID 1347052);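 further: cGMP level read as GloSensor luciferase luminescence after agonist stimulation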
- STATED_CONDITIONS: HEK293 hNpr1 GloSensor cGMP luminescence, ANP-stimulated; series mostly up to 9.22 µM
- Text: […] 7. […] GloSensor baseline pre-read luminescence measured using CCD-based camera (Viewlux). […] 10. […] GloSensor post-hNppA luminescence measured using CCD-based camera (Viewlux). […] 1. […] Cells counted with Invitrogen Countess (30,000,000 - 50,000,000 cells/flask). […]
Results filed as inconclusive are left out. Activity calls are given as the source filed them. Calls follow the shape of the full dose curve.
Entry note: the call must match one of yes (1) (active), no (0) (inactive)

Solved entries (count: 5):
# MOLECULE, SYSTEM_UNDER_TEST, ANSWER_LABEL
measured = [
    ("COC(=O)N[C@@H](c1ccc(Cl)cc1)C(C(C)=O)C(=O)OC (some centres not stated)", "Atrial natriuretic peptide receptor 1 (Homo sapiens) (UniProt P16066)", "no (0)"),
    ("COCc1cc2cc3c(cc2c2c(C(=O)OC)c(C(=O)OC)c(C(=O)OC(C)(C)C)n12)OCO3", "Atrial natriuretic peptide receptor 1 (Homo sapiens) (UniProt P16066)", "yes (1)"),
    ("COc1cccc(O[C@H]2C=C[C@@H](c3ccccc3)O[C@H]2CO)c1", "Atrial natriuretic peptide receptor 1 (Homo sapiens) (UniProt P16066)", "no (0)"),
    ("COc1ccc2c3c(c(=O)oc2c1)[C@H]1O[C@](c2ccsc2)(Cc2cc(C#N)ccc21)O3", "Atrial natriuretic peptide receptor 1 (Homo sapiens) (UniProt P16066)", "no (0)"),
    ("COc1cc2c(c(OC)c1OC)[C@@]1(c3ccccc3)CCCCC[C@H]1[C@@H]2NC(=O)C(F)(F)F", "Atrial natriuretic peptide receptor 1 (Homo sapiens) (UniProt P16066)", "no (0)"),
]

What did this assay record as the result for COc1cc2c(cc1OC)CSC1C(=O)N(C)C(SC2)C(=O)N1C ? no (0)

What did this assay record as the result for COC(=O)C1=C(C(=O)OC)[C@@H]2N(C)c3ccccc3[C@@]23C[C@@H](CO)N(C(=O)NC2CCCC2)C3=N1 ? no (0)

----------
- MEASUREMENT_DESCRIPTION: Primary qHTS for inhibitors of nuclear receptor binding SET domain protein 2 (NSD2) in an RCH-ACV wild type WT cells (2C) (AID 1645877); further: nearly all actives have a fitted effect of over 70% in size
- STATED_CONDITIONS: RCH-ACV (leukaemia line) NSD2 WT (2C) viability, CellTiter-Glo, 72 h; series mostly up to 44.9 µM
Inconclusive results are not listed. Activity calls are given as the source filed them. Calls come from the whole dose curve; as a rule, active = well fitted inhibition curve with a large enough effect; inconclusive = small, poorly fitted or top-dose-only effect; inactive = no such curve, though single readings can be large or run the other way.
Entry note: the call must match one of true = active, false = inactive

Solved entries (count: 5):
# MOLECULE, ANSWER_LABEL
measured = [
    ("Clc1ccccc1CNCC1CCC(CNCc2ccccc2Cl)CC1 (stereo not drawn)", "true"),
    ("NC(=O)c1ncn(C2O[C@H](CO)[C@@H](O)[C@H]2O)c1N (stereo partly drawn)", "false"),
    ("Cc1cc(C)c(/C=C2\\C(=O)Nc3ccc(Cl)cc32)[nH]1", "false"),
    ("C[C@@H]1CCNC(=O)c2cc3ccc(C(=O)Nc4nc5ccccc5n4CCCN(C)C)cc3n21", "true"),
    ("CC(C)CN(CC(=O)N(CCCN1CCCC1=O)CC(N)=O)C(=O)CNCCc1ccccc1F", "false"),
]

What did this assay record as the result for CCCCn1c(-c2ccccc2)nc(-c2ccccc2)c1CN(Cc1ccc2c(c1)OCO2)Cc1ccc2c(c1)OCO2 ? true
